B1: glmS ribozyme (parent)
chain: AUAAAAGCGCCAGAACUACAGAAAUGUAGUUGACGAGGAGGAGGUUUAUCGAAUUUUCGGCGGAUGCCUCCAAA

Variants of: B1
assay_summary: self-cleavage kobs at 2500 uM GlcN6P; higher = faster cleavage; RNA array
assay_setup: with glucosamine-6-phosphate
Fewer inactive variants are shown than the library holds.
Entries and their measured self-cleavage kobs at 2500 uM GlcN6P follow.
reported_endpoint: self-cleavage kobs at 2500 uM GlcN6P

AUAAAAGCGCCCGAACUACAGAAAUGUAGUUCACGAGGAGGAGGUUUAUCGAAUUUCUGGCGGAUGCCUCCAAA = < 1e-05 s⁻¹
AUAAAAGAGCCAGAACUACAGAAAUGUAGUUGACGAGGAGGAGGUUUAUCGAAUUUUAGGCGGCUGCCUCCAAA = < 1e-05 s⁻¹
AUAAAAGCGCCUGAACUACAGAAAUGUAGUUGACGAGGAGCAGGUUUAUCGAAUUUUAGGCGGAUGCCUCCAAA = < 1e-05 s⁻¹
AUAAAAGCGCCAGAACUACAGAAAUGUAGUUGACGAGCAGGAUGUUUAUCGAAUUUUCGGCGGCUGCCUCCAAA = < 1e-05 s⁻¹
AUAAAAGCGCCAGAACUACAGAAAUGUAGUUGACGAGGAGGAUGUUUAUCGAAUUUUCGGAGGAUGCCUCCAAA = < 1e-05 s⁻¹
AUAAAAGCGCCAGAACUACAGAAAUGUAGUUGAAGAGGAGGAGGUUUAUCGAAAUUUCGGCGGCUGCCUCCAAA = < 1e-05 s⁻¹
AUAAAGGCGCCAGAACUACAGAAAUGUAGCUGAUGAGGAGGAGGUUUAUCGAAUUUUCGGCGGAUGCCUCCAAA = < 1e-05 s⁻¹
AUAAAAGCGCCAGAACUACAGAAAUGUAGUUGACGAGGAUGAGGUUUAUCGAAUUUUCGCCGGAUGCCUCCAAA = < 1e-05 s⁻¹
AUAAAAGCGCCAGAACUACAGAAAUGUAGUUGACGAGAAGCAGGUUUAUCGAAGUUUCGGAGGAUGCCUCCAAA = < 1e-05 s⁻¹
AUAAAAGCGCCAGAACUACAGAAAUGUAGUUGACGAGGAGGAGAUUUAUCGAAUUUUCGGCGAAUGCCUCCAAA = < 1e-05 s⁻¹
AUAAAAGCGCCAGAACUACAGAAAUGUAGUUGACGACGAGGAGGUUUAUCGAAUUUUCCGCGGAUGCCUCCAAA = < 1e-05 s⁻¹

Data provenance is the supplement of paper PMC7125110.
